B1: Tyrosine-protein kinase Lck, residues 63 to 120; numbered along this chain, P06239 (parent)
chain: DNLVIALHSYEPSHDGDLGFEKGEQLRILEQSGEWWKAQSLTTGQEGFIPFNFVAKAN

# Variants of: B1
# method: abundance fitness (aPCA) (normalised: wild type 0, dead -1); higher = more abundant; growth selection in yeast, the domain comes from the species named
# details: Homo sapiens
Answer each item with its documented abundance fitness.
Form field (numeric): enter value without unit.

Kindly note the recorded abundance fitness for `W35I` , which is -0.049

Kindly note the recorded abundance fitness for `L3G` , which is -0.768

Kindly note the recorded abundance fitness for `L41F` , which is -0.54

Kindly note the recorded abundance fitness for `T43M` , which is -0.766

Kindly note the recorded abundance fitness for `S40I` , which is -0.687

Kindly note the recorded abundance fitness for `A57K` , which is -0.18

Kindly note the recorded abundance fitness for `A38F` , which is -0.771

Kindly note the recorded abundance fitness for `Q45A` , which is -0.087

Kindly note the recorded abundance fitness for `E46Y` , which is -0.316

Kindly note the recorded abundance fitness for `F48D` , which is -0.559

Kindly note the recorded abundance fitness for `Q25N` , which is 0.069

Kindly note the recorded abundance fitness for `H14I` , which is -0.118

Kindly note the recorded abundance fitness for `P50D` , which is -0.73

Kindly note the recorded abundance fitness for `G23K` , which is -0.792

Kindly note the recorded abundance fitness for `E11W` , which is -0.435

Kindly note the recorded abundance fitness for `G23M` , which is -0.792

Kindly note the recorded abundance fitness for `V54K` , which is -1.05

Kindly note the recorded abundance fitness for `A57L` , which is 0.003

Kindly note the recorded abundance fitness for `D1W` , which is -0.331

Kindly note the recorded abundance fitness for `Y10C` , which is -0.415

Kindly note the recorded abundance fitness for `W35S` , which is 0.002

Kindly note the recorded abundance fitness for `K56N` , which is 0.055

Kindly note the recorded abundance fitness for `S32Y` , which is -0.082

Kindly note the recorded abundance fitness for `K22F` , which is -0.603

Kindly note the recorded abundance fitness for `F20G` , which is -0.921

Kindly note the recorded abundance fitness for `L18F` , which is -0.449

Kindly note the recorded abundance fitness for `E21V` , which is 0.022

Kindly note the recorded abundance fitness for `H8S` , which is -0.078

Kindly note the recorded abundance fitness for `Q31R` , which is 0.054

Kindly note the recorded abundance fitness for `P12N` , which is -0.557

Kindly note the recorded abundance fitness for `T42D` , which is -0.181

Kindly note the recorded abundance fitness for `F53Q` , which is -0.293

Kindly note the recorded abundance fitness for `Q25S` , which is -0.053

Kindly note the recorded abundance fitness for `I49K` , which is -0.771

Kindly note the recorded abundance fitness for `G33K` , which is -0.545

Kindly note the recorded abundance fitness for `R27P` , which is -0.914

Kindly note the recorded abundance fitness for `G33D` , which is -0.467

Kindly note the recorded abundance fitness for `P12S` , which is -0.366

Kindly note the recorded abundance fitness for `V54C` , which is -0.375

Kindly note the recorded abundance fitness for `E34Y` , which is -0.026

Kindly note the recorded abundance fitness for `E21H` , which is -0.001

Kindly note the recorded abundance fitness for `D17F` , which is -0.229

Kindly note the recorded abundance fitness for `E21R` , which is -0.052

Kindly note the recorded abundance fitness for `I28T` , which is -0.683

Kindly note the recorded abundance fitness for `A38W` , which is -0.598

Kindly note the recorded abundance fitness for `G47S` , which is -0.931
